Quick reference: cell viability of the listed items.
Tested on: Vero E6
Assay: cell viability relative to DMSO; higher = less toxic
Conditions: 72 h; 1 nM
Use % as the unit, but write only the number.

The following compounds have reported results that may help.
Output measured cell viability for this item: "COc1cc(OC)c(NC(=O)Nc2cc(C)on2)cc1Cl"
99

Output measured cell viability for this item: "CC[C@H]1CN2CCc3cc(OC)c(OC)cc3[C@@H]2C[C@@H]1C[C@H]1NCCc2cc(OC)c(OC)cc21"
94.3

Output measured cell viability for this item: "CC(C)NC(=N)NC(=N)Nc1ccc(Cl)cc1"
97

Output measured cell viability for this item: CCCN[C@@H]1CCc2c(OC)cccc2[C@@H]1C [AJ76-(+)]
97.8

Output measured cell viability for this item: COC(=O)[C@@]12OC[C@]34[C@H]([C@@H](O)[C@@H]1O)[C@@]1(C)CC(=O)C(O)=C(C)[C@@H]1C[C@H]3OC(=O)[C@H](OC(=O)/C=C(\C)C(C)C)[C@@H]24 [bruceantin]
101

Others:
Output measured cell viability for this item: "CCCn1c(=O)[nH]c2nc(-c3ccc(S(=O)(=O)O)cc3)[nH]c2c1=O"
106

Output measured cell viability for this item: "CC(C)N(CCCCOCC(=O)NS(C)(=O)=O)c1cnc(-c2ccccc2)c(-c2ccccc2)n1"
100

---

Quick reference: cell viability of the listed items.
Tested on: Calu-3
Experiment: cell viability relative to DMSO; higher = less toxic
Conditions: 72 h; 10 nM
Use % as the unit, but write only the number.

Output measured cell viability for this item: CO/N=C1\CN(c2nc3c(cc2F)c(=O)c(C(=O)O)cn3C2CC2)CC1CN (centres undefined) [gemifloxacin]
98.5

Output measured cell viability for this item: CCOc1ccc(S(=O)(=O)O)c2cccnc12 [actinoquinol]
99.4

Output measured cell viability for this item: CC(C)(C)NC(=O)[C@@H]1C[C@@H]2CCCC[C@@H]2CN1C[C@@H](O)[C@H](Cc1ccccc1)NC(=O)[C@H](CC(N)=O)NC(=O)c1ccc2ccccc2n1 [saquinavir]
104

Output measured cell viability for this item: COc1cccc2c1C(=O)c1c(O)c3c(c(O)c1C2=O)C[C@@](O)(C(=O)CO)C[C@@H]3O[C@H]1C[C@H](N)[C@H](O[C@@H]2CCCCO2)[C@H](C)O1 [pirarubicin]
92.7

Output measured cell viability for this item: CCCC(C)(COC(N)=O)COC(=O)NC(C)C (centres undefined) [CARISOPRODOL]
88.2

Output measured cell viability for this item: Cc1c(NC(=O)N2CCOCC2)ccc2c1c1ccccc1n2C(C)C [NPY-5RA972]
89.5

Output measured cell viability for this item: O=S(=O)(O)Oc1ccc(C(c2ccc(OS(=O)(=O)O)cc2)c2ccccn2)cc1 [sodium-picosulfate]
95

Output measured cell viability for this item: CNS(=O)(=O)CCc1ccc2[nH]cc(C3CCN(C)CC3)c2c1 [naratriptan]
94.1

Output measured cell viability for this item: Fc1cc(-c2cccc3ncc(-c4cnn(C5CCNCC5)c4)nc23)cc(F)c1CN1CCOCC1 [NVP-BSK805]
97.2

---

Quick reference: cell viability of the listed items.
System: Calu-3
Experiment: cell viability relative to DMSO; higher = less toxic
Conditions: 72 h; 10000 nM
Use % as the unit, but write only the number.

Output measured cell viability for this item: CCOC(=O)/C=C(C)/C=C/C=C(C)/C=C/c1c(C)cc(OC)c(C)c1C [etretinate]
109

Output measured cell viability for this item: "CC(=O)O[C@@H]1C[C@H]2C(C)(C)C(=O)C=C[C@]2(C)[C@H]2CC[C@@]3(C)[C@H](c4ccoc4)OC(=O)[C@H]4O[C@]43[C@@]21C"
102

Output measured cell viability for this item: CC(C)(Oc1ccc(CCNC(=O)c2ccc(Cl)cc2)cc1)C(=O)O [bezafibrate]
98.4

Output measured cell viability for this item: "CC(C)CCN1c2nc(Nc3cc(F)c(O)c(F)c3)ncc2N(C)C(=O)[C@@H]1C"
63.1

---

System: HepG2
Test: cell viability relative to DMSO; higher = less toxic
Details: 72 h; 1 nM
MEASURED_PARAMETER: cell viability (%)
Use % as the unit, but write only the number.

With HepG2 as the test system, provide measured cell viability for this molecule: O=C(NC(Cc1cc(=O)[nH]c2ccccc12)C(=O)O)c1ccc(Cl)cc1 (stereo unspecified) [rebamipide]
107

With HepG2 as the test system, provide measured cell viability for this molecule: "CC(C)(C)c1ccc(NC(=O)N2CCN(c3ncccc3Cl)CC2)cc1"
99.3

With HepG2 as the test system, provide measured cell viability for this molecule: Brc1ccc(NC2C3CC4CC(C3)CC2C4)cc1 (stereo unspecified)
105

Others:
With HepG2 as the test system, provide measured cell viability for this molecule: "C[C@H]1[C@H](C)CC[C@]2(C(=O)O)CC[C@]3(C)C(=CC[C@@H]4[C@@]5(C)C[C@@H](O)[C@H](O)[C@@](C)(CO)[C@@H]5CC[C@]43C)[C@H]12"
83.4

With HepG2 as the test system, provide measured cell viability for this molecule: CC(CNC1CCCCC1)OC(=O)c1ccccc1 (stereo unspecified)
106

With HepG2 as the test system, provide measured cell viability for this molecule: CC1=CC[C@@H](C(C)(C)O)C[C@@H]1O [sobrepin]
109

---

Tested on: U2OS
Test: cell viability relative to DMSO; higher = less toxic
Settings: 72 h; 10000 nM
MEASURED_PARAMETER: cell viability (%)
Use % as the unit, but write only the number.

The following compounds have reported results that may help.
With U2OS as the test system, provide measured cell viability for this compound: CC1Nc2ccc(Cl)cc2S(=O)(=O)N1 (stereo not drawn) [IDRA-21]
98.2

With U2OS as the test system, provide measured cell viability for this compound: CC(C)[N+](C)(CCOC(=O)C1c2ccccc2Oc2ccccc21)C(C)C [propantheline]
102

Others:
With U2OS as the test system, provide measured cell viability for this compound: NCCCC(O)(P(=O)(O)O)P(=O)(O)O [alendronate]
97.7

With U2OS as the test system, provide measured cell viability for this compound: CCCCCCCCCCCCCCCC(=O)OC(C)C [isopropyl-palmitate]
97.7

With U2OS as the test system, provide measured cell viability for this compound: CCN(CCCCOC(=O)c1ccc(OC)c(OC)c1)C(C)Cc1ccc(OC)cc1 (stereo not drawn) [mebeverine]
96.3

With U2OS as the test system, provide measured cell viability for this compound: "CN1CCN(c2ccc(Nc3ncc4cc(C#N)c(=O)n(C5CCCC5)c4n3)cc2)CC1"
70

With U2OS as the test system, provide measured cell viability for this compound: NC(=S)N/N=C/c1coc2ccccc2c1=O.[Cl][Cu][Cl] [FPA-124]
99.8

With U2OS as the test system, provide measured cell viability for this compound: CC(C)CCNc1ncccc1C(=O)N1CCN(Cc2ccccc2)CC1 [NSI-189]
99.3

---

Quick reference: drug sensitivity score of the listed items.
System: Caco-2
Assay: drug sensitivity score (DSS) for viability; higher = more toxic; extreme values may be limits of the assay
Settings: 72 h
The response must contain the number and no unit.

Output measured drug sensitivity score for this item: "Nc1ncnc2c1c(-c1cnc3[nH]ccc3c1)nn2C1CCCC1"
12.1

Output measured drug sensitivity score for this item: "NC(=S)N/N=C/c1coc2ccccc2c1=O.[Cl][Cu][Cl]"
1

Let us move to another entry and its drug sensitivity score.
Output measured drug sensitivity score for this item: "CC1=NN(c2ccc(C(=O)O)cc2)C(=O)C1=Cc1ccc(-c2cc(C)c(C)cc2[N+](=O)[O-])o1"
0

---

Test system: Calu-3
Experiment: relative viability EC50 (midpoint between 100% and the lowest measured viability); higher = less toxic
Conditions: 72 h
MEASURED_PARAMETER: relative viability EC50

The following compounds have reported results that may help.
Output measured relative viability EC50 for this item: "Nc1ncnc2c1C(=O)N(c1ccc([C@H]3CC[C@H](CC(=O)O)CC3)cc1)CCO2"
> 10 µM

Output measured relative viability EC50 for this item: COc1cc2c(cc1OC)[C@@H](Cc1cc(OC)c(OC)c(OC)c1)[N+](C)(CCCOC(=O)CC/C=C/CCC(=O)OCCC[N+]1(C)CCc3cc(OC)c(OC)cc3[C@H]1Cc1cc(OC)c(OC)c(OC)c1)CC2 (stereo not given in full)
> 10 µM

Output measured relative viability EC50 for this item: "COc1ccc(-c2cc(C(F)F)nn2-c2ccc(S(N)(=O)=O)cc2)cc1F"
> 10 µM

Output measured relative viability EC50 for this item: "CN1CCN(c2ccc(Nc3ncc4cc(C#N)c(=O)n(C5CCCC5)c4n3)cc2)CC1"
> 10 µM

Others:
Output measured relative viability EC50 for this item: "Cc1cnc(C(=O)N[C@H]2CCCCC/C=C\[C@@H]3C[C@@]3(C(=O)NS(=O)(=O)C3CC3)NC(=O)[C@@H]3C[C@@H](Oc4nc5ccccc5c5ccccc45)CN3C2=O)cn1"
> 10 µM

Hello, the source for this data is the supplement of paper PMC13380429, in case you need it.
